- Type: in vitro ADME, Human
- Condition Description: human, pH 7.4
*1 amine or outer side, *2 acyl side, *3 side chain or, on linkers, in order; H or OH if unused. Where a SMILES comes first, the peptide text is derived from it. [ ]: non-standard residue; d: D form. NMeTrp(1-Me) = CN[C@@H](Cc1cn(C)c2ccccc12)C(=O)O; X1 = C#CCn1cc(C[C@H](N[*:1])C(=O)[*:2])c2ccccc21; NMeLeu(5-OH,4R) = CN[C@@H](C[C@@H](C)CO)C(=O)O; Phe(βR-OMe) = CO[C@H](c1ccccc1)[C@H](N)C(=O)O; Trp(1-Me) = Cn1cc(C[C@H](N)C(=O)O)c2ccccc21; NMeL = CN[C@@H](CC(C)C)C(=O)O; Pra = C#CC[C@H](N)C(=O)O
Below: a set of entries, each annotated with reported Hepatocyte Human.
Unit %Qh implied. Number only.

[[record]]
compound = "C#CCn1cc(C[C@@H]2NC(=O)[C@H](C(C)C)NC(=O)[C@H](CC(C)C)N(C)C(=O)[C@H](C(C)C)NC(=O)[C@H]([C@H](OC)c3ccccc3)NC(=O)[C@H](C)NC(=O)[C@H](C[C@@H](C)CO)N(C)C2=O)c2ccccc21 [Compound 5] (cyclo(A[Phe(βR-OMe)]V[NMeL]V[X1][NMeLeu(5-OH,4R)]))"
result_value = 12


Answer with the recorded Hepatocyte Human for the compound listed here: CO[C@H](c1ccccc1)[C@@H]1NC(=O)[C@H](C)NC(=O)[C@H](C[C@@H](C)CO)N(C)C(=O)[C@H](Cc2cn(C)c3ccccc23)NC(=O)[C@H](CCC(=O)N(C)C)NC(=O)[C@H](CC(C)C)N(C)C(=O)[C@H](C(C)C)NC1=O [SI-74] (cyclo(A[Phe(βR-OMe)]V[NMeL]E(NMe2)[Trp(1-Me)][NMeLeu(5-OH,4R)]))
12

Could you please provide reported Hepatocyte Human for `CO[C@H](c1ccccc1)[C@@H]1NC(=O)[C@H](C)NC(=O)[C@H](C[C@@H](C)CO)N(C)C(=O)[C@H](Cc2cn(Cc3cn(CCCCCn4cc(Cn5cc(C[C@@H]6NC(=O)[C@H](C(C)C)NC(=O)[C@H](CC(C)C)N(C)C(=O)[C@H](C(C)C)NC(=O)[C@H]([C@H](OC)c7ccccc7)NC(=O)[C@H](C)NC(=O)[C@H](C[C@@H](C)CO)N(C)C6=O)c6ccccc65)nn4)nn3)c3ccccc23)NC(=O)[C@H](C(C)C)NC(=O)[C@H](CC(C)C)N(C)C(=O)[C@H](C(C)C)NC1=O` ? Thanks!
12

Quote Hepatocyte Human reported for `CCCCCn1cc(C[C@@H]2NC(=O)[C@H](CC(C)C)N(C)C(=O)[C@H](C(C)C)NC(=O)[C@H]([C@H](OC)c3ccccc3)NC(=O)[C@H](C)NC(=O)[C@H](C[C@@H](C)CO)N(C)C(=O)[C@H](Cc3cn(C)c4ccccc34)N(C)C2=O)nn1` please.
30

Tell me its Hepatocyte Human given `CO[C@H](c1ccccc1)[C@@H]1NC(=O)[C@H](C)NC(=O)[C@H](C[C@@H](C)CO)N(C)C(=O)[C@H](Cc2cn(Cc3cn(CCOCCOCCOCCOCCn4cc(Cn5cc(C[C@H]6C(=O)N(C)[C@@H](C[C@@H](C)CO)C(=O)N[C@@H](C)C(=O)N[C@@H]([C@H](OC)c7ccccc7)C(=O)N[C@@H](C(C)C)C(=O)N(C)[C@@H](CC(C)C)C(=O)N[C@@H](C(C)C)C(=O)N6C)c6ccccc65)nn4)nn3)c3ccccc23)N(C)C(=O)[C@H](C(C)C)NC(=O)[C@H](CC(C)C)N(C)C(=O)[C@H](C(C)C)NC1=O` as the entry.
12

// fetch Hepatocyte Human given entry `CO[C@H](c1ccccc1)[C@@H]1NC(=O)[C@H](C)NC(=O)[C@H](C[C@@H](C)CO)N(C)C(=O)[C@H](Cc2cn(C)c3ccccc23)NC(=O)[C@H](Cc2cn(CCOCCOCCn3cc(C[C@@H]4NC(=O)[C@H](CC(C)C)N(C)C(=O)[C@H](C(C)C)NC(=O)[C@H]([C@H](OC)c5ccccc5)NC(=O)[C@H](C)NC(=O)[C@H](C[C@@H](C)CO)N(C)C(=O)[C@H](Cc5cn(C)c6ccccc56)NC4=O)nn3)nn2)NC(=O)[C@H](CC(C)C)N(C)C(=O)[C@H](C(C)C)NC1=O`
12

For C#CC[C@@H]1NC(=O)[C@H](CC(C)C)N(C)C(=O)[C@H](C(C)C)NC(=O)[C@H]([C@H](OC)c2ccccc2)NC(=O)[C@H](C)NC(=O)[C@H](C[C@@H](C)CO)N(C)C(=O)[C@H](Cc2cn(C)c3ccccc23)N(C)C1=O [Compound 20] (cyclo(A[Phe(βR-OMe)]V[NMeL][Pra][NMeTrp(1-Me)][NMeLeu(5-OH,4R)])) , write its Hepatocyte Human.
34
